The measurements presented in this section are drawn from ChEMBL document CHEMBL1133675.

biological target: D(2) dopamine receptor (Rattus norvegicus); assay: In vitro inhibition of specific binding of [3H]-YM 09151-2 to Dopamine receptor D2 site in rat striatal tissue.
Sequence (P61169 whole entry): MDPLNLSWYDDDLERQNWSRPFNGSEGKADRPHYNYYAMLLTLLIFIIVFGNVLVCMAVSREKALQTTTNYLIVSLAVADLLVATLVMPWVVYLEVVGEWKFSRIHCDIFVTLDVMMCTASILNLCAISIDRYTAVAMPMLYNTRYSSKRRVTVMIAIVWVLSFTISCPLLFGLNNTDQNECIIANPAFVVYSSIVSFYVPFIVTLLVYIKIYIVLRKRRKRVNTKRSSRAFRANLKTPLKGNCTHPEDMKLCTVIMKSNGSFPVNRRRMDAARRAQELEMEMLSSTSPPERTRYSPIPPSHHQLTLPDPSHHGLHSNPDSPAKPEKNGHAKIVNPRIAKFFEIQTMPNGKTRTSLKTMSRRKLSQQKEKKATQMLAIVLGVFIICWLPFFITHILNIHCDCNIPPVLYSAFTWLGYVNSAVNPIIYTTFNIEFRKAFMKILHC
Task for the reader: assign each of the following compounds its reported IC50.
One number for each entry, in nM.

// below: answered compounds
COc1cc(OC)c(N2CCN(CCC3CCN(CC4COc5ccccc5O4)CC3)C2=O)c(OC)c1 (stereo not drawn): 320
O=C(NCCC1CCN(CC2COc3ccccc3O2)CC1)NC1CCCCC1 (stereo not drawn): 35

Exam item: Endpoint output: IC50 of O=C1Nc2ccccc2CN1CC1CCN(CC2COc3ccccc3O2)CC1 (stereo not drawn) . Value?
Marked response: 550

---

target: Adrenergic receptor alpha-1 (Rattus norvegicus, UniProt P15823+P23944+P43140); assay: In vitro inhibition of specific binding of [3H]- prazosin to alpha-1 adrenergic receptor site in rat brain membranes.; assay type: cell membranes
Record form. Attribute: IC50. Fill in for each entry.
Numbers only, in nM.

List the reported IC50 of each compound below.
1. O=C(NCCC1CCN(CC2COc3ccccc3O2)CC1)NC1CCCCC1 (stereo not given)
2. COc1ccccc1CC(=O)NCCC1CCN(CC2COc3ccccc3O2)CC1 (stereo not given)
3. CC(C)c1cccc(C(C)C)c1N1CCN(CCC2CCN(CC3COc4ccccc4O3)CC2)C1=O (stereo not given)

Marked response:
42
70
180

Hey, quick one: what's IC50 for each of these?
1. CCOc1cccc(OCC)c1N1CCN(CCC2CCN(CC3COc4ccccc4O3)CC2)C1=O (stereo not given)
2. Cc1cccc(C)c1N1CCN(CCC2CCN(CC3COc4ccccc4O3)CC2)C1=O (stereo not given)

Marked response:
1: 70; 2: 85

---

target: Adrenergic receptor alpha-2 (Rattus norvegicus, UniProt P22086+P19328+P22909); assay: In vitro inhibition of binding of [3H]-RX-821002 to alpha-2 adrenergic receptor site in rat brain membranes.; assay type: cell membranes
measured.endpoint: IC50 (nM)
Give bare numbers, in nM.

COc1ccccc1CC(=O)NCCC1CCN(CC2COc3ccccc3O2)CC1 (stereo not given): 10
O=C(NCCC1CCN(CC2COc3ccccc3O2)CC1)c1ccccc1[N+](=O)[O-] (stereo not given): 2
O=C(NCCC1CCN(CC2COc3ccccc3O2)CC1)NC1CCCCC1 (stereo not given): 2
O=C(Cc1ccccc1[N+](=O)[O-])NCCC1CCN(CC2COc3ccccc3O2)CC1 (stereo not given): 1
Cc1cccc(C)c1N1CCN(CCC2CCN(CC3COc4ccccc4O3)CC2)C1=O (stereo not given): 1.8
CCOc1cccc(OCC)c1N1CCN(CCC2CCN(CC3COc4ccccc4O3)CC2)C1=O (stereo not given): 4
O=C1Nc2ccccc2CN1CCC1CCN(CC2COc3ccccc3O2)CC1 (stereo not given): 5
O=C1Nc2ccccc2CN1CC1CCN(CC2COc3ccccc3O2)CC1 (stereo not given): 25
COc1cc(OC)c(N2CCN(CCC3CCN(CC4COc5ccccc5O4)CC3)C2=O)c(OC)c1 (stereo not given): 4.5

Exam item: Which IC50 value is on record for CC(C)c1cccc(C(C)C)c1N1CCN(CCC2CCN(CC3COc4ccccc4O3)CC2)C1=O (stereo not given) ?
Marked response: 36

---

target: D(2) dopamine receptor (Rattus norvegicus); experiment: In vitro inhibition of specific binding of [3H]-YM 09151-2 to Dopamine receptor D2 site in rat striatal tissue.
Provide the recorded pIC50 for the entries that follow.
Answers are plain numbers, as −log10 of the molar value.

Below, 7 molecules whose answers are already recorded.
CC(C)c1cccc(C(C)C)c1N1CCN(CCC2CCN(CC3COc4ccccc4O3)CC2)C1=O (centres undefined): 6.32
O=C(NCCC1CCN(CC2COc3ccccc3O2)CC1)c1ccccc1[N+](=O)[O-] (centres undefined): 7.60
COc1ccccc1CC(=O)NCCC1CCN(CC2COc3ccccc3O2)CC1 (centres undefined): 7.30
CCOc1cccc(OCC)c1N1CCN(CCC2CCN(CC3COc4ccccc4O3)CC2)C1=O (centres undefined): 6.87
Cc1cccc(C)c1N1CCN(CCC2CCN(CC3COc4ccccc4O3)CC2)C1=O (centres undefined): 7.10
COC(=O)[C@@H]1[C@H]2C[C@H]3c4[nH]c5ccccc5c4CCN3C[C@@H]2CC[C@@H]1O [YOHIMBINE]: 5.95
O=C(Cc1ccccc1[N+](=O)[O-])NCCC1CCN(CC2COc3ccccc3O2)CC1 (centres undefined): 8.74

Exam item: Can you share its pIC50? I mean this molecule: O=C1Nc2ccccc2CN1CCC1CCN(CC2COc3ccccc3O2)CC1 (centres undefined)
Marked response: 7.80

---

Target: Adrenergic receptor alpha-1 (Rattus norvegicus, UniProt P15823+P23944+P43140)
Sequence (P15823 whole entry): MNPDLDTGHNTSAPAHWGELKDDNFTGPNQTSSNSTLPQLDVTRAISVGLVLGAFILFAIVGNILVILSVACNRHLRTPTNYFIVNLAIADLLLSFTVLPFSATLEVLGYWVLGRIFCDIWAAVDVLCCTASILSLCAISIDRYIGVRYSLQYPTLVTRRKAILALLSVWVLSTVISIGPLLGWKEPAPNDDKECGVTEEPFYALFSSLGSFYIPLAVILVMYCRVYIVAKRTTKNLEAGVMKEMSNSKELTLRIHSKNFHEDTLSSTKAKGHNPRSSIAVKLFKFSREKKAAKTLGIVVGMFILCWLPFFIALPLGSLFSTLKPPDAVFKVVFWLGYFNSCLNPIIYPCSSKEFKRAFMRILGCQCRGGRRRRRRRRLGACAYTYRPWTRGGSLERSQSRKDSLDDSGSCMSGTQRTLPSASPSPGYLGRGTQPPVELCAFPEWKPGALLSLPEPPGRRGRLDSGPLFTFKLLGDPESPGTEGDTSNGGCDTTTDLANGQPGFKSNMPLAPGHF
Sequence (P23944 whole entry): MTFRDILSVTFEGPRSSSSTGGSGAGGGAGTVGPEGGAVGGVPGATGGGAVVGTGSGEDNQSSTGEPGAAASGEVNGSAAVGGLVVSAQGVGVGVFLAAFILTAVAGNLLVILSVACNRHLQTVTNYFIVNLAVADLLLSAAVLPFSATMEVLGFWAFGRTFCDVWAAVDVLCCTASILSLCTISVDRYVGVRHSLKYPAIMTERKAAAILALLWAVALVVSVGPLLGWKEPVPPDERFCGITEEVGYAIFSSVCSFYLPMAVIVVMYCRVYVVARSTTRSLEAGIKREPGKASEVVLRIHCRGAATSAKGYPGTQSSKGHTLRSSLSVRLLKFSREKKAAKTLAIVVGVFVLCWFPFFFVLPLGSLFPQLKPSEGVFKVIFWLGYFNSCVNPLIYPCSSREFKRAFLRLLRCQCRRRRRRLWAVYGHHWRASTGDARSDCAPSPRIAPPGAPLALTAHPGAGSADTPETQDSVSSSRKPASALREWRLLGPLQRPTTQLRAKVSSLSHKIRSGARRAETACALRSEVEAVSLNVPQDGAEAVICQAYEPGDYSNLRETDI
Sequence (P43140 whole entry): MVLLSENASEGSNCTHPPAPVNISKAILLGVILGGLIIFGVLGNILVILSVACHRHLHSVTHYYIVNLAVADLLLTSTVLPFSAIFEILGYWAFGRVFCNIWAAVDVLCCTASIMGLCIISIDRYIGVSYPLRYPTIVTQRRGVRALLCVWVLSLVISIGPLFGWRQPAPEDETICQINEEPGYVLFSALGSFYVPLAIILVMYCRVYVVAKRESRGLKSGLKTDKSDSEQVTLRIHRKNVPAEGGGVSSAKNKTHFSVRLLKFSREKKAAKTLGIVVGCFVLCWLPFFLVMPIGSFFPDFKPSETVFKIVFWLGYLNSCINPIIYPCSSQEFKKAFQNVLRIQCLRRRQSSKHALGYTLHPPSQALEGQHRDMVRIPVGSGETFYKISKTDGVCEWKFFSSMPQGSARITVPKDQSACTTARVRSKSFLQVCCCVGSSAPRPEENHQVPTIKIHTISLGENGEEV
Test: In vitro inhibition of specific binding of [3H]- prazosin to alpha-1 adrenergic receptor site in rat brain membranes.
Assay type: cell membranes
Exercise: state measured log10 IC50 for each of the molecules provided.
For clarity, the numbers are log10 values of IC50 expressed in nM.

O=C1Nc2ccccc2CN1CC1CCN(CC2COc3ccccc3O2)CC1 (stereo not given): 1.85
O=C1Nc2ccccc2CN1CCC1CCN(CC2COc3ccccc3O2)CC1 (stereo not given): 1.26
COc1cc(OC)c(N2CCN(CCC3CCN(CC4COc5ccccc5O4)CC3)C2=O)c(OC)c1 (stereo not given): 2.30
O=C(NCCC1CCN(CC2COc3ccccc3O2)CC1)c1ccccc1[N+](=O)[O-] (stereo not given): 1.30

Attention now turns to another entry.
Exam item: Which log10 IC50 is listed for O=C(Cc1ccccc1[N+](=O)[O-])NCCC1CCN(CC2COc3ccccc3O2)CC1 (stereo not given) ?
Marked response: 1.06
